assayExplanation: Log P by HPLC on reversed phase columns (EEC directive 79/831 Annex V.A8)
Type: physicochemical
testSettings: reversed phase HPLC column; method [a]: LC-UV, acidic range, 0.1% formic acid in water and acetonitrile as eluent
# chromatographic logP listing for each entry below
quantityKind: chromatographic logP

molecule: CC(O)(Cn1nc[nH]c1=S)c1ccc(Oc2ccccc2)nc1C(F)(F)F (centres unmarked)
measValue: 2.66
//
molecule: CC(O)(Cn1nc[nH]c1=S)c1ccc(Oc2ccc(Cl)cc2)nc1C(F)(F)F (centres unmarked)
measValue: 3.11
//
molecule: OC(Cn1nc[nH]c1=S)(c1ccc(Oc2ccc(Br)cc2)nc1C(F)(F)F)C1CC1 (centres unmarked)
measValue: 3.87
//
molecule: OC(Cn1nc[nH]c1=S)(c1ccc(Oc2ccccc2)nc1C(F)(F)F)C1CC1 (centres unmarked)
measValue: 3.27
//
molecule: CC(O)(Cn1nc[nH]c1=S)c1ccc(Oc2ccc(Br)cc2)nc1C(F)(F)F (centres unmarked)
measValue: 3.21
